# SYSTEM_NAME: antithrombin III (plasma purified human AT-III), in complex with unfractionated heparin
OBSERVED_PROPERTY: K0.5-mut/K0.5-wt
Give your answer as a number; write no unit.

Enquiry: Report K0.5-mut/K0.5-wt for FIXa-R318Y/R403E/E410N (protein) chain 1: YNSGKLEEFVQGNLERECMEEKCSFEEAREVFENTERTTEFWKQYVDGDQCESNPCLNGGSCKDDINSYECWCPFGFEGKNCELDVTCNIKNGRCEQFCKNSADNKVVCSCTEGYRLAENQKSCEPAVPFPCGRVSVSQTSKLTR chain 2: VVGGEDAKPGQFPWQVVLNGKVDAFCGGSIVNEKWIVTAAHCVETGVKITVVAGEHNIEETEHTEQKRNVIRIIPHHNYNAAINKYNHDIALLELDEPLVLNSYVTPICIADKEYTNIFLKFGSGYVSGWGRVFHKGYSALVLQYLRVPLVDRATCLRSTKFTIYNNMFCAGFHEGGRDSCQGDSGGPHVTEVEGTSFLTGIISWGEECAMKGKYGIYTKVSEYVNWIKNKTKLT please.
Return: 366
